systemTested: native soluble IL-6R in human plasma (human, UniProt P08887)
test: ELISA 3, periplasmic extract; competitor BN-12; human plasma
propertyMeasured: OD450 ratio sample/blank

A. IL6RPMP101F2 (VHH) VHH: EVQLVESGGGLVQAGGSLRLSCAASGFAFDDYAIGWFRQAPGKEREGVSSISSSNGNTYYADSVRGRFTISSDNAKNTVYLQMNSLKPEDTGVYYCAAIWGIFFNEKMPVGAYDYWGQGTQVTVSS
B. IL6RPMP101G11 (VHH) VHH: EVQLVESGGGLVQPGGSLRLSCAASASGFTLDYYAIGWFRQAPGKEREGVSCISSTDGSTYYADSVKGRFTISRDNAKNTVYLQMNSLNPEDTGVYTCAAVLTTAQAMGVPTRSYEYDYWGQGTQVTVSS
Req: Of A and B , whose reported OD450 ratio sample/blank is the larger number? Indicate which entry you chose by stating its label.
Resp: A
(A: 0.972, B: 0.468)

Source listed as patent US10618964B2.
